# Measured Target: TBK1 (Homo sapiens)
# Sequence (Q9UHD2 whole entry): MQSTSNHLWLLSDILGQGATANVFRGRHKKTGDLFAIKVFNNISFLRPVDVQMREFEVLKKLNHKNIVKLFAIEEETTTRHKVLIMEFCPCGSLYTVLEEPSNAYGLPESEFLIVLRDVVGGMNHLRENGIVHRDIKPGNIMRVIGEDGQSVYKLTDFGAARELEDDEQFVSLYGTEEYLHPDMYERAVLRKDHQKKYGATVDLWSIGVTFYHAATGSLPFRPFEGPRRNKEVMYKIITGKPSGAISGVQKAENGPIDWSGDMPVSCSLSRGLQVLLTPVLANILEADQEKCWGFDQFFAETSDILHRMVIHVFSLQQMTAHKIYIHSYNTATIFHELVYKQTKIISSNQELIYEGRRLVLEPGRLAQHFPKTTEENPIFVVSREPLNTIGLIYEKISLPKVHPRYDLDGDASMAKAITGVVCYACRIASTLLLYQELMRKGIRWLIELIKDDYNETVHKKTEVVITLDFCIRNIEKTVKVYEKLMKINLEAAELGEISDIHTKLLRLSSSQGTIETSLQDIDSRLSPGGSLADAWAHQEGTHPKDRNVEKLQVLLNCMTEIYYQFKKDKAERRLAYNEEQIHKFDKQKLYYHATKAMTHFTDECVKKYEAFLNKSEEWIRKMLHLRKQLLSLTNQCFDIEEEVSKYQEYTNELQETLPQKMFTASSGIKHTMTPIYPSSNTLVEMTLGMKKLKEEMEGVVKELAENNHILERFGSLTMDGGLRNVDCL
pIC50: −log10 of the molar value.
Readout: pIC50

P. COc1cccc(-c2cnc3[nH]cc(C4=CCN(C(=O)NC(C)C)CC4)c3c2)c1 [Example 14]
Q. CN1CCN(Cc2ccc(-c3cnc4[nH]cc(C5=CCN(C(=O)NC6CCCC6)CC5)c4c3)s2)CC1 [Example 71]
R. CN(C)S(=O)(=O)c1ccc(-c2cnc3[nH]cc(C4=CCN(C(=O)OC5CCCC5)CC4)c3c2)cc1 [Example 179]
S. COc1ccc(-c2cnc3[nH]cc(C4=CCN(C(=O)NC5CCCC5)CC4C)c3c2)cc1OC (stereo not shown) [Example 120]
Hey, quick one: sort these by pIC50, low to high? Your answer should be the labels, listed in the requested order.
R, S, P, Q
